tested on: SF-295; assay: NCI tumour cell line growth inhibition, 48 h
Activity calls are given as the source filed them. No stated cut-off is given here; in the data, active = GI50 up to about 1.1 µM and inactive = higher. Positions of bridges follow the written chain, without caps; N, C: chain ends. Non-standard residues stand in square brackets, D forms with d. Residues, ends and D or L forms follow the SMILES beside them. ξ: configuration not given here. *: point of attachment. X28 = O=C(/C=C/C=C/C=C/C=C/C=C/C(=O)*)NC1=C(O)CCC1=O; Pro(4R-Me) = C[C@H]1CN[C@H](C(=O)O)C1; NMeA = CN[C@@H](C)C(=O)O; ξF = NC(Cc1ccccc1)C(=O)O; ξA = CC(N)C(=O)O
Here the recorded GI50 is given for each entry.

Please review the following examples before continuing.
>  <molecule>
COC(=O)C12C3C4C5C3(C#N)C1C5(C(=O)OC)C42C(=O)N(C(C)C)C(C)C (stereo not drawn)

>  <experimental system>
SF-295

>  <GI50>
> 100 µM (inactive)

$$$$
>  <molecule>
CC1(C)COCN1COC1CCCCC1

>  <experimental system>
SF-295

>  <GI50>
> 100 µM (inactive)

$$$$
>  <molecule>
CC1NC(=O)[C@H](C)N(C)C(=O)[C@@H]2CCCN2C(=O)[C@@H](NC(=O)C(Cc2ccccc2)NC(=O)/C=C/C=C/C=C/C=C/C=C/C(=O)NC2=C(O)CCC2=O)COC(=O)[C@@H]2C[C@@H](C)CN2C1=O (stereo partly drawn) (X28-[ξF]SP[NMeA][ξA][Pro(4R-Me)]; ester 2-C)

>  <experimental system>
SF-295

>  <GI50>
> 100 µM (inactive)

$$$$
>  <molecule>
c1ccc2c(c1)Nc1cccc3c1c-2nc1cc2ccccc2cc13

>  <experimental system>
SF-295

>  <GI50>
1.6 µM (inactive)

$$$$
>  <molecule>
COc1ccc(/C=N/Nc2nc(=S)[nH]c3[nH]ncc23)cc1

>  <experimental system>
SF-295

>  <GI50>
40.6 µM (inactive)

$$$$

From here, focus on the item given below.
The reported GI50 value, SF-295, for OC(CCNCc1ccccc1)c1ccc2ccccc2c1 (stereo not drawn) reads 33 µM (inactive)

---

tested on: SF-268; experiment: NCI tumour cell line growth inhibition, 48 h
Active and inactive are the calls of the source. No stated cut-off is given here; in the data, active = GI50 up to about 1.1 µM and inactive = higher.
observable: GI50

>  <compound>
C[C@H]1CC[C@H]([C@@H](C)[C@H]2[C@@H](O)C[C@H]3[C@@H]4CC[C@H]5C[C@@H](O)CC[C@]5(C)[C@H]4CC[C@]23C)NC1

>  <GI50>
23.1 µM (inactive)

$$$$
>  <compound>
Cc1ccnc2c1C(=O)C1=C(OC(C)(C)CC1O)C2=O (centres undefined)

>  <GI50>
1.79 µM (inactive)

$$$$

According to the records, this compound COC(=O)C(C)NP(=O)(N1CC1)N1CC1 (centres undefined) displays GI50 of > 100 µM (inactive)

GI50 recorded for this compound, CSc1nc(NC2OCC(OC(C)=O)C(OC(C)=O)C2OC(C)=O)c(/N=C(\C)C(C)=O)c(=O)[nH]1 (centres undefined) , is > 100 µM (inactive)

---

tested on: Malme-3M; assay: NCI tumour cell line growth inhibition, 48 h
Active and inactive are the calls of the source. Rule as the data show it: active = GI50 up to about 1.1 µM and inactive = higher. Where a SMILES comes first, the peptide text is derived from it. The star is where a group is joined. Cbz = O=C(OCc1ccccc1)*
observable: GI50

Worked examples, 8 molecules total:
>  <molecule>
CC(/C=C/c1ccccc1)=N\NC(N)=S

>  <GI50>
45.7 µM (inactive)

$$$$
>  <molecule>
C=CCOc1ccc(C(=N/NC(=O)c2ccccc2)/N=N/c2ccc([N+](=O)[O-])cc2)cc1OC

>  <GI50>
> 100 µM (inactive)

$$$$
>  <molecule>
CSc1nnc2n1-c1ccccc1SCC2

>  <GI50>
> 100 µM (inactive)

$$$$
>  <molecule>
CN(C)CCNC(=O)c1cccc2nc3c(C(=O)NCCN(C)C)cccc3nc12

>  <GI50>
1.77 µM (inactive)

$$$$
>  <molecule>
CCOC(=O)c1cn2c(n1)sc1cc(C)c(C)cc12

>  <GI50>
17.3 µM (inactive)

$$$$
>  <molecule>
C[C@]12CCC(=O)O[C@H]1CCCCO2

>  <GI50>
> 100 µM (inactive)

$$$$
>  <molecule>
CC(O)C(N/C=C1/N=C(c2ccccc2)OC1=O)C(=O)O (stereo not given)

>  <GI50>
> 100 µM (inactive)

$$$$
>  <molecule>
CC(C)=CCN=C(N)N

>  <GI50>
> 100 µM (inactive)

$$$$

Recorded GI50 for "CC1(C)C[C@H]2[C@H](O)C(CO)=C3C(=O)[C@@H](O)[C@]3(C)[C@H]2C1" on Malme-3M was > 100 µM (inactive)

Readout GI50 for "O=C(NCCO)c1c(O)c2ccccc2[nH]c1=O" , test system Malme-3M, was > 100 µM (inactive)

Item: O=C1CC(c2ccc(Cl)cc2)C2(C(=O)NC(=O)NC2=O)C(c2ccc(Cl)cc2)C1 (stereo not given) | System: Malme-3M | GI50: 17.1 µM (inactive)

Note to self: GI50 of "CN(C)CCNc1nc2c(c(=O)n(C)c(=O)n2C)n1C" with Malme-3M was > 100 µM (inactive)

For the molecule CCOC(=O)CCC(NC(=O)C(CC(=O)OC)NC(=O)OCc1ccccc1)C(=O)NC(CC(=O)OC)C(=O)NC(CCC(=O)OCC)C(=O)NC(CC(=O)OC)C(=O)NC(CCC(=O)OCC)C(=O)NC(CC(=O)OCC)C(=O)OCC (stereo not given) (Cbz-D(OMe)E(OEt)D(OMe)E(OEt)D(OMe)E(OEt)D(OEt)-OEt; configuration not given here) , the measured GI50 on Malme-3M was > 100 µM (inactive)

GI50 for Malme-3M with input "C#CCN(C(=O)C(F)(F)F)C(/C=C\C(=O)OC)(C(=O)OCC)C(=O)OCC" equals > 100 µM (inactive)

Field GI50 (Malme-3M), entry "Cc1ccc(-c2n[nH]c(=O)n2/N=C\c2ccc([N+](=O)[O-])cc2)cc1" : > 100 µM (inactive)

Kindly note: Malme-3M, "CNS(=O)(=O)NNS(=O)(=O)c1ccc(Br)cc1" , GI50 value reported: > 100 µM (inactive)

Tested on Malme-3M: COC(=O)c1ccccc1C1CN=NC12Cc1ccc(C)c(C)c1C2=O (stereo not given) . Observed GI50: > 100 µM (inactive)

The observed GI50 for COC(=O)C(C)NP(=O)(N1CC1)N1CC1 (stereo not given) when tested with Malme-3M stands at > 100 µM (inactive)

Record "NC(=S)Nc1c(S(N)(=O)=O)cc(S(N)(=O)=O)c(Cl)c1Cl" has Malme-3M GI50 equal to > 100 µM (inactive)

Bench note, Malme-3M: entry Cn1c(C(O)C2(c3cccnc3)SCCCS2)cc2ccccc21 (stereo not given) , its GI50 = > 100 µM (inactive)

---

tested on: ACHN; assay: NCI tumour cell line growth inhibition, 48 h
Calls of active or inactive are those of the source. No stated cut-off is given here; in the data, active = GI50 up to about 1.1 µM and inactive = higher.
List of GI50 values.

Item: "Oc1cccc2c(Br)ccnc12" | GI50: 2.58 µM (inactive)

Data point: OC(CCNCc1ccccc1)c1ccc2ccccc2c1 (stereo unspecified) ; GI50 = 18.3 µM (inactive)

# GI50 (compound: CCOC(=O)C(O)(NC(=O)c1ccccc1F)C(F)(F)F (stereo unspecified) ) is > 100 µM (inactive)

The compound identified as "O=[N+]([O-])C(/C(Cl)=C(/Cl)N1CCCCC1)=C1\NCCO1" registered its GI50 at > 100 µM (inactive)

For record CN(C)C12C=CC=CC3=C(c4ccccc4)C(c4ccccc4)=C(c4ccccc4)C31c1ccccc1C2 (stereo unspecified) the listed GI50 is > 100 µM (inactive)

Looking up Cn1c(C(O)C2(c3cccnc3)SCCCS2)cc2ccccc21 (stereo unspecified) , I found its GI50 recorded as > 100 µM (inactive)

---

system: OVCAR-3; experiment: NCI tumour cell line growth inhibition, 48 h
Active and inactive are the calls of the source. No stated cut-off is given here; in the data, active = GI50 up to about 1.1 µM and inactive = higher.
A collection of compounds and their measured GI50

Some entries whose results are on file:
>  <compound>
N#C[C@H]1C(=O)C(c2nc3ccccc3[nH]2)S[C@H]1c1ccccc1 (stereo not given in full)

>  <experimental system>
OVCAR-3

>  <recorded measurement>
31 µM (inactive)

$$$$
>  <compound>
O=S(=O)(C1=CC(S(=O)(=O)c2ccccc2)CN(Cc2ccccc2)C1c1cccc2ccccc12)c1ccccc1 (stereo not given)

>  <experimental system>
OVCAR-3

>  <recorded measurement>
> 69 µM (inactive)

$$$$
>  <compound>
Cc1cc(N(C)c2ccccc2)nc(N(C)c2ccccc2)n1

>  <experimental system>
OVCAR-3

>  <recorded measurement>
33 µM (inactive)

$$$$
>  <compound>
Cc1ccc(-c2n[nH]c(=O)n2/N=C\c2ccc([N+](=O)[O-])cc2)cc1

>  <experimental system>
OVCAR-3

>  <recorded measurement>
> 100 µM (inactive)

$$$$
>  <compound>
CCCCSC1=N/C(=C\c2ccco2)C(Cl)=N1

>  <experimental system>
OVCAR-3

>  <recorded measurement>
> 100 µM (inactive)

$$$$
>  <compound>
COS(=O)c1cc(Cl)cc(Cl)c1O (stereo not given)

>  <experimental system>
OVCAR-3

>  <recorded measurement>
> 100 µM (inactive)

$$$$

# GI50 of Nc1ncnc2c1ncn2C1CC(OCc2ccccc2[N+](=O)[O-])C(CO)O1 (stereo not given) = 30.1 µM (inactive)

Lab note: measured GI50 of "CCOC(=O)C(C)(C(=O)OCC)/C(Cl)=C\Cl" was > 100 µM (inactive)

Documented GI50 of CC12CC3OC(=O)C1COC14OC5(C2C1=O)C(O)(CCC1C4CC(O)C2(O)CC=CC(=O)C12C)C(=O)OC35C (stereo not given) : > 100 µM (inactive)

Sample "CSc1nc(O)c2cn(Cc3ccccc3)nc2n1" ; GI50 observed: > 100 µM (inactive)
